Ref: paper PMC11247627

tested on: Staphylococcus aureus ATCC 33591 (MRSA); test: Antibacterial broth microdilution assay (MIC), MRSA ATCC 33591; format: cell-based; conditions: Staphylococcus aureus; amount inhibiting >95% of growth (A600), 18 h; suffix 'I' = partial growth inhibition at the value, >95% at higher concentrations; read-out: MIC ATCC 33591
Reported MIC is given for each of the following molecules.

{"MOLECULE": "CCOC(=O)C1=C(c2ccccc2)NC(N)=NC1c1ccccc1OC (centres unmarked)", "TARGET_SYSTEM": "Staphylococcus aureus ATCC 33591 (MRSA)", "MIC": "> 64 µg/mL"}
{"MOLECULE": "CCOC(=O)C1=C(c2ccccc2)NC(N)=NC1c1cccc(C(F)(F)F)c1 (centres unmarked)", "TARGET_SYSTEM": "Staphylococcus aureus ATCC 33591 (MRSA)", "MIC": "32 µg/mL"}
{"MOLECULE": "CCOC(=O)C1=C(c2ccccc2)NC(N)=NC1c1cc(OC)cc(OC)c1 (centres unmarked)", "TARGET_SYSTEM": "Staphylococcus aureus ATCC 33591 (MRSA)", "MIC": "> 64 µg/mL"}
{"MOLECULE": "CCOC(=O)C1=C(c2cccc(C)c2)NC(N)=NC1c1cc(Cl)cc(Cl)c1 (centres unmarked)", "TARGET_SYSTEM": "Staphylococcus aureus ATCC 33591 (MRSA)", "MIC": "8 µg/mL"}
{"MOLECULE": "CCOC(=O)C1=C(c2ccccc2)NC(N)=NC1c1ccccc1[N+](=O)[O-] (centres unmarked)", "TARGET_SYSTEM": "Staphylococcus aureus ATCC 33591 (MRSA)", "MIC": "> 64 µg/mL"}

The molecule listed as CCOC(=O)C1=C(c2ccccc2)NC(N)=NC1c1ccccc1 (centres unmarked) shows MIC equal to > 64 µg/mL

Briefly, MIC measured for CCOC(=O)C1=C(c2ccccc2)NC(N)=NC1c1ccc(OC)cc1 (centres unmarked) : > 64 µg/mL

###

system: Staphylococcus aureus; assay: S. aureus growth inhibition (all three strains or strain not specified); assay type: cell-based; settings: Staphylococcus aureus; all three S. aureus strains or strain not specified; read-out: concentration inhibiting S. aureus growth (MIC)
READOUT_NAME: MIC

{"COMPOUND": "CCOC(=O)CC(=O)c1ccc(C2(C(F)(F)F)N=N2)cc1", "MIC": "> 64 µg/mL"}

So, "CCOC(=O)c1c(-c2ccccc2)nc(N)nc1-c1ccc(CC(C)C)cc1" ? Its MIC was > 64 µg/mL

Value of measured MIC for the entry CCOC(=O)C1=C(c2ccccc2)NC(N)=NC1c1ccccc1 (stereo not drawn) : > 64 µg/mL

###

We begin with a simple list: items and their reported MIC.
tested on: Staphylococcus aureus ATCC 33591 (MRSA); experiment: Antibacterial broth microdilution assay (MIC), MRSA ATCC 33591; assay type: cell-based; details: Staphylococcus aureus; amount inhibiting >95% of growth (A600), 18 h; suffix 'I' = partial growth inhibition at the value, >95% at higher concentrations; read-out: MIC ATCC 33591
# output: bare number, implied unit µg/mL

{"COMPOUND": "CCOC(=O)C1=C(c2cccc(C)c2)NC(N)=NC1c1ccc(CC(C)C)cc1 (stereo not shown) [7j]", "READOUT_NAME": "MIC", "ENDPOINT_RESULT": 4}

CCOC(=O)C1=C(CC)NC(N)=NC1c1ccc(-c2ccccc2)cc1 (stereo not shown) [7d] tested on Staphylococcus aureus ATCC 33591 (MRSA) gave MIC: 8
